- Test system: HCC70 (Breast Carcinoma)
- Assay Overview: combination Emax (second highest fraction inhibited in the dose matrix, 72 h); higher = more inhibition; extreme values may be limits of the assay
Here, each record is paired with measured combination Emax data.
Form: value (number only, do not type unit).

INSERT INTO measurements (compound, readout_name, quantitative_readout) VALUES
  ('Cc1c2c(nn1C)CSCc1cc(n(C)n1)CSc1cc(c3ccccc3c1)OCCCc1c(C(=O)O)n(C)c3c-2c(Cl)ccc13 [AZD5991] + C1CN(CCC1(C(=O)N[C@@H](CCO)C2=CC=C(C=C2)Cl)N)C3=NC=NC4=C3C=CN4 [Capivasertib] (first compound max 1 µM, 7x7, partner max 3 µM)', 'combination Emax', 0.99);

Alright, here's another compound for you.
So, NC1(C(=O)N[C@@H](CCO)c2ccc(Cl)cc2)CCN(c2ncnc3[nH]ccc23)CC1 [Capivasertib] + C[C@@H]1COCCN1C2=NC(=NC(=C2)C3(CC3)[S@](=N)(=O)C)C4=C5C=CNC5=NC=C4 [AZD6738] (first compound max 10 µM, 7x7, partner max 10 µM) ? Its combination Emax was 0.817

---

- Test system: KYSE-140 (Esophageal Squamous Cell Carcinoma);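 note: after 72 h of two-drug dosing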
- Assay Overview: Bliss excess, mean over the matrix (fraction); higher = more synergy
Tick 1 if Bliss excess is -0.03 or greater. Tick -1 if Bliss excess is less than -0.03.

INSERT INTO assay_data (molecule, discrete_label) VALUES
  ('CN(CCO)CC[C@H](CSc1ccccc1)Nc1ccc(S(=O)(=O)NC(=O)c2ccc(N3CCC([C@@H](O)c4ccccc4-c4ccc(Cl)cc4)CC3)cc2)cc1S(=O)(=O)C(F)(F)F [AZD4320] + C1CN(CCC1(C(=O)N[C@@H](CCO)C2=CC=C(C=C2)Cl)N)C3=NC=NC4=C3C=CN4 [Capivasertib] (first compound max 1 µM, 7x7, partner max 3 µM)', -1);

Prompt line: State whether the measured Bliss excess reaches -0.03, counting equality as reaching it, for NC1(C(=O)N[C@@H](CCO)c2ccc(Cl)cc2)CCN(c2ncnc3[nH]ccc23)CC1 [Capivasertib] + Cn1cnc2c(F)c(Nc3ccc(Br)cc3Cl)c(C(=O)NOCCO)cc21 [Selumetinib] (first compound max 10 µM, 7x7, partner max 10 µM)
Response line: 1

Prompt line: State whether the measured Bliss excess reaches -0.03, counting equality as reaching it, for CC(=O)c1c(C)c2cnc(Nc3ccc(N4CCNCC4)cn3)nc2n(C2CCCC2)c1=O [Palbociclib] + CC1(C)CCC(CN2CCN(c3ccc(C(=O)NS(=O)(=O)c4ccc(NCC5CCOCC5)c([N+](=O)[O-])c4)c(Oc4cnc5[nH]ccc5c4)c3)CC2)=C(c2ccc(Cl)cc2)C1 [Venetoclax] (first compound max 10 µM, 7x7, partner max 1 µM)
Response line: 1

Prompt line: State whether the measured Bliss excess reaches -0.03, counting equality as reaching it, for CN(CCO)CC[C@H](CSc1ccccc1)Nc1ccc(S(=O)(=O)NC(=O)c2ccc(N3CCC([C@@H](O)c4ccccc4-c4ccc(Cl)cc4)CC3)cc2)cc1S(=O)(=O)C(F)(F)F [AZD4320] + CN(C)CCCOc1ccc(-c2ccc3ncc4c(c3c2)n(C2CCOCC2)c(=O)n4C)cn1 [AZD0156] (first compound max 1 µM, 7x7, partner max 1 µM)
Response line: 1

Prompt line: State whether the measured Bliss excess reaches -0.03, counting equality as reaching it, for COc1nnc2ccc(N3CCC(c4ccc(OCCN5CCN(C)C(=O)[C@H]5C)cc4)CC3)nn12 [AZD5153] + Cn1cnc2c(F)c(Nc3ccc(Br)cc3Cl)c(C(=O)NOCCO)cc21 [Selumetinib] (first compound max 1 µM, 7x7, partner max 10 µM)
Response line: 1

Prompt line: State whether the measured Bliss excess reaches -0.03, counting equality as reaching it, for NC1(C(=O)N[C@@H](CCO)c2ccc(Cl)cc2)CCN(c2ncnc3[nH]ccc23)CC1 [Capivasertib] + CCN(CCO)CCCOc1ccc2c(Nc3cc(CC(=O)Nc4cccc(F)c4)[nH]n3)ncnc2c1 [AZD2811] (first compound max 10 µM, 7x7, partner max 1 µM)
Response line: 1

Prompt line: State whether the measured Bliss excess reaches -0.03, counting equality as reaching it, for COc1cc2ncnc(Nc3ccc(F)c(Cl)c3)c2cc1OCCCN1CCOCC1 [Gefitinib] + CC(C)n1c(=O)n(C)c2cnc3cc(F)c(-c4ccc(OCCCN5CCCCC5)nc4)cc3c21 [AZD1390] (first compound max 10 µM, 7x7, partner max 0.3 µM)
Response line: -1

Prompt line: State whether the measured Bliss excess reaches -0.03, counting equality as reaching it, for C[C@@H](c1ccc2nccn2c1)n1nnc2ncc(-c3cnn(C)c3)nc21 [Savolitinib] + CC1(C)CCC(CN2CCN(c3ccc(C(=O)NS(=O)(=O)c4ccc(NCC5CCOCC5)c([N+](=O)[O-])c4)c(Oc4cnc5[nH]ccc5c4)c3)CC2)=C(c2ccc(Cl)cc2)C1 [Venetoclax] (first compound max 1 µM, 7x7, partner max 1 µM)
Response line: 1

Prompt line: State whether the measured Bliss excess reaches -0.03, counting equality as reaching it, for CC1(C)CCC(CN2CCN(c3ccc(C(=O)NS(=O)(=O)c4ccc(NCC5CCOCC5)c([N+](=O)[O-])c4)c(Oc4cnc5[nH]ccc5c4)c3)CC2)=C(c2ccc(Cl)cc2)C1 [Venetoclax] + Cn1cnc2c(F)c(Nc3ccc(Br)cc3Cl)c(C(=O)NOCCO)cc21 [Selumetinib] (first compound max 1 µM, 7x7, partner max 3 µM)
Response line: 1

Source of measurements: the supplement of paper PMC11061612
